Target: recombinant doubly mutated EGFR L858R, T790M kinase domain (mLT-EGFR) (Homo sapiens, UniProt P00533, L858R/T790M)
Experiment: Kinetic analysis (AssayQuant)
Format: biochemical
attribute_measured: kinact (s⁻¹)
Your answer should be a plain number; it is taken to be in s⁻¹.

q: # kinact lookup, item "C#Cc1cc(=O)n(-c2ccccc2)c2nc(Nc3ccc(N(C)C(=O)CN(C)C)cc3OC)ncc12"
a: 0.0051

q: Next entry: "C#Cc1cc(=O)n(-c2ccccc2)c2nc(Nc3ccc(N4CCN(C)CC4)cc3)ncc12"
a: 0.02

q: Next entry: "C#Cc1cc(=O)n(-c2ccccc2)c2nc(Nc3ccc(N(C)C(=O)COC)cc3OC)ncc12"
a: 0.0035

q: Next entry: "C#Cc1cc(=O)n(-c2ccccc2)c2nc(Nc3ccc(N4CCOCC4)cc3)ncc12"
a: 0.0061

====

Provide the reported Protein adduct formation of each item.
Molecular target: mLTC-EGFR (Homo sapiens, UniProt P00533, C797S/L858R/T790M)
Assay: Intact protein mass spectrometry, covalent adduct formation
Assay type: binding
Conditions: adduct stoichiometry by intact protein mass spectrometry

q: # Protein adduct formation lookup, item C#CC(=O)Nc1cccc(-c2nn(C)c3ncnc(N)c23)c1 [Compound S2]
a: 1-3

q: Next entry: C#CC(=O)NCc1cc(=O)n(-c2ccccc2)c2nc(Nc3ccccc3OC)ncc12 [Compound S5]
a: 1-2

q: Next entry: C#CC(=O)Nc1ccccc1Oc1ccc(-c2nn(C)c3ncnc(N)c23)cc1 [Compound S9]
a: 1-4

q: Next entry: C=CC(=O)Nc1ccccc1Oc1ccc(-c2nn(C)c3ncnc(N)c23)cc1 [Compound S8]
a: 0-1

Every entry's value here was drawn from paper PMC12794186.
